Assay: Quantitative High-Throughput drug screen in 47 multiple myeloma cell lines against the NCATS MIPE library collection: LP1_DSMZ cell viability assay (AID 1918982); further: nearly all actives have a fitted effect of over 35% in size
Conditions: LP1 myeloma viability, CellTiter-Glo ATP luminescence, 48 h; series mostly up to 45.8 µM
Inconclusive results are not listed. Activity calls are given as the source filed them. The call rests on the fitted dose curve; in most records, active means well fitted cell-killing curve with a large enough effect; inconclusive means small, poorly fitted or top-dose-only effect, or effect the other way; inactive means no such curve, though single readings can be large or run the other way.
metric_name: outcome

INSERT INTO results (compound, test_result) VALUES
  ('Cc1c(N)nc([C@H](CC(N)=O)NC[C@@H](N)C(N)=O)nc1C(=O)N[C@H](C(=O)N[C@@H](C)[C@H](O)[C@@H](C)C(=O)N[C@@H](C(=O)NCCc1nc(-c2nc(C(=O)NCCC[S+](C)C)cs2)cs1)[C@@H](C)O)C(O[C@H]1O[C@H](CO)[C@H](O)[C@@H](O)[C@@H]1O[C@H]1O[C@H](CO)[C@@H](O)[C@H](OC(N)=O)[C@H]1O)c1cnc[nH]1 (some centres not stated)', 'inactive'),
  ('CC(=Cc1csc(C)n1)[C@@H]1C[C@H]2O[C@]2(C)CCC[C@H](C)[C@@H](O)[C@@H](C)C(=O)C(C)(C)[C@@H](O)CC(=O)O1', 'inactive');

----------
Experiment: qHTS of pediatric cancer cell lines to identify multiple opportunities for drug repurposing: Confirmatory screen for BT-12 cells (AID 1347112);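 further: viability read after 48 h of compound exposure; nearly all actives have a fitted effect of over 55% in size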
Conditions: BT-12 rhabdoid tumor cells, viability; series mostly up to 45.9 µM
Records with an inconclusive call do not appear. Calls of active or inactive are those of the source. Calls come from the whole dose curve; as a rule, active = well fitted cell-killing curve with a large enough effect; inconclusive = small, poorly fitted or top-dose-only effect; inactive = flat fitted curve, though single readings scatter.
Bench note: report the call from yes (1) (active), no (0) (inactive)

INSERT INTO assay_data (compound_string, assigned_category) VALUES
  ('O=[N+]([O-])c1c(Cl)c(Cl)cc(Cl)c1Cl', 'no (0)'),
  ('CC(C)[C@]12O[C@@H]1[C@@H]1O[C@]13[C@]1(O[C@H]1C[C@@H]1C4=C(CC[C@@]13C)C(=O)OC4)[C@H]2O', 'yes (1)'),
  ('C[C@@H]1O[C@@H](O[C@@H]2C=C3CC[C@@H]4[C@@H](CC[C@]5(C)[C@H](c6ccc(=O)oc6)CC[C@@]45O)[C@@]3(C)CC2)[C@H](O)[C@H](O)[C@H]1O', 'yes (1)'),
  ('C[C@@H]1CC[C@@]2(OC1)O[C@H]1C[C@H]3[C@@H]4CC=C5C[C@@H](O[C@@H]6O[C@H](CO)[C@@H](O[C@@H]7O[C@@H](C)[C@H](O)[C@@H](O)[C@@H]7O)[C@H](O)[C@@H]6O[C@@H]6O[C@@H](C)[C@H](O)[C@@H](O)[C@@H]6O)CC[C@]5(C)[C@@H]4CC[C@]3(C)[C@@H]1[C@H]2C', 'yes (1)');

Q: What is the recorded call for this molecule in the test? O=c1[nH]c2ccc(Cl)cc2c(N[C@@H]2CN3CCC2CC3)c1-c1nc2ccccc2[nH]1
Result: yes (1)

Q: Then what about the molecule CC(C)N[C@@H]1CCn2c(=O)[nH]c3cccc(c32)[C@@H]1O ?
Result: no (0)

----------
Assay: qHTS for differential inhibitors of proliferation of Plasmodium falciparum line HB3 (AID 1886);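 further: parasites grown with compound for 72 h before SYBR Green readout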
Conditions: Plasmodium falciparum HB3 proliferation inhibition; series mostly up to 28.7 µM
Results filed as inconclusive are left out. Calls of active or inactive are those of the source. Calls come from the whole dose curve; as a rule, active = well fitted curve in the direction sought with a large enough effect; inconclusive = small, poorly fitted or top-dose-only effect, or another doubt; inactive = no such curve, though single readings can be large or run the other way.
The reply should name one outcome from yes for active, no for inactive

Use these answered entries as a reference point.
INSERT INTO assay_data (compound, assigned_category) VALUES
  ('Cc1nc(-c2ccc(-c3ccc(C(=O)N4CCc5cc6c(cc54)C4(CCN(C)CC4)CO6)cc3)c(C)c2)no1', 'yes'),
  ('CCCN(CCC)C1CCc2ccc(O)cc2C1 (stereo unspecified)', 'yes'),
  ('c1ccc(CCCN2CCN(CCOC(c3ccccc3)c3ccccc3)CC2)cc1', 'yes');

Q: Please state the recorded outcome for this compound: CC(=O)NCCc1c[nH]c2ccccc12
Result: no

Q: Another compound to check: NC(N)=NOCCC(N)C(=O)O (stereo unspecified)
Result: no

Q: And the next one, CCCN1CCC[C@H](c2cccc(O)c2)C1 ?
Result: no

----------
Tested on: PC26
Assay: qHTS profiling for inhibitors of Plasmodium falciparum proliferation (AID 504749); further: nearly all actives have a fitted effect of over 60% in size
Settings: P. falciparum in erythrocytes, SYBR Green DNA, 72 h; series mostly up to 28.7 µM
Inconclusive results are not listed. Active and inactive are the calls of the source. Calls come from the whole dose curve; as a rule, active = well fitted inhibition curve with a large enough effect; inconclusive = small, poorly fitted or top-dose-only effect; inactive = flat fitted curve, though single readings scatter.
Allowed answers: active, inactive

Some entries whose results are on file:
INSERT INTO measurements (compound, assigned_category) VALUES
  ('CCCCc1ccc(C(=O)O)nc1', 'inactive'),
  ('CC(=O)[O][Hg][c]1ccccc1', 'active'),
  ('CN(C)[C@@H]1C(=O)C(C(N)=O)=C(O)[C@@]2(O)C(=O)C3=C(O)c4c(O)cccc4[C@@](C)(O)[C@H]3[C@H](O)[C@@H]12', 'inactive');

We next turn to a different compound, shown below.
Q: Recorded test call requested for CN1C2CCC1CC(OC(=O)c1cc(Cl)cc(Cl)c1)C2 (centres undefined)
Result: inactive

----------
Each record here notes measured activation.
Assay: qHTS assay for environmental chemicals that activate the Aryl hydrocarbon Receptor (AhR) signaling pathway (AID 651777); further: % of control where 0% means no effect; nearly all actives have a fitted effect of over 15% in size
Settings: 1A2-DRE human hepatoma cells, luciferase, 24 h; hits give high values
Records with an inconclusive call do not appear.
Use % as the unit, but write only the number.

// known answers, use as guide
INSERT INTO measurements (molecule, metric_name, test_result) VALUES
  ('CO/C=C(/C(=O)OC)c1ccccc1Oc1cc(Oc2ccccc2C#N)ncn1', 'activation', 1.61),
  ('CC(C)Oc1cccc(NC(=O)c2ccccc2C(F)(F)F)c1', 'activation', 11.8);

Q: Which activation value is on record for CCO/N=C(\CC)C1=C(O)CC(c2c(C)cc(C)cc2C)CC1=O (stereo not drawn) ?
Result: -2.09

----------
Test: Identifying Small Molecule Inhibitors of Pancreatic Cancer Stem Cells (SN12C, Adherent) (AID 1259358);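 further: cell survival measured after 48 h of compound exposure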
Conditions: viability/growth inhibition; series mostly up to 46.1 µM
Inconclusive results are not listed. Active and inactive are the calls of the source. The call rests on the fitted dose curve; in most records, active means well fitted cell-killing curve with a large enough effect; inconclusive means small, poorly fitted or top-dose-only effect; inactive means flat fitted curve, though single readings scatter.
Bench note: report the call from 1 (active), -1 (inactive)

Past entries and their recorded results:
INSERT INTO assay_data (compound_string, assigned_category) VALUES
  ('C=CCON=C(C[C@H]1O[C@@H]2O[C@]3(C)CC[C@@H]4[C@H](C)CC[C@@H]([C@H]1C)[C@@]24OO3)[C@H]1O[C@@H]2O[C@]3(C)CC[C@H]4[C@H](C)CC[C@@H]([C@@H]1C)[C@@]24OO3', 1),
  ('O=C(Oc1ccc([N+](=O)[O-])cc1)N1CCC(C(O)(c2ccc3c(c2)OCO3)c2ccc3c(c2)OCO3)CC1', -1);

Q: What call does the record list for Cc1ccccc1-n1c(Cn2cnc3c(N)ncnc32)nc2cccc(C)c2c1=O ?
Result: 1

Q: Follow-up item: Cc1nc(-c2ccc(-c3ccc(C(=O)N4CCc5cc6c(cc54)C4(CCN(C)CC4)CO6)cc3)c(C)c2)no1
Result: -1

Q: What about this compound? COc1ccc2c(c[n+](C)c3c4cc5c(cc4ccc23)OCO5)c1OC
Result: 1

----------
Assay: NS1 protein of Zika virus - qHTS assay to identify small molecule inhibitors in human HEK 293 cells (AID 1347053); further: nearly all actives have a fitted effect of over 55% in size
Conditions: HEK293 ZIKV MR766 infection, NS1 TR-FRET, 24 h; series mostly up to 46.1 µM
Inconclusive results are not listed. Activity calls are given as the source filed them. Calls come from the whole dose curve; as a rule, active = well fitted inhibition curve with a large enough effect; inconclusive = small, poorly fitted or top-dose-only effect; inactive = no such curve, though single readings can be large or run the other way.
Pick from 1 = active, 0 = inactive when you respond.

Take a look at these entries with their results.
INSERT INTO measurements (compound, assigned_category) VALUES
  ('NC(CCP(=O)(O)O)C(=O)O (stereo unspecified)', 0),
  ('CC(C)(O)C(=O)Nc1ccc([N+](=O)[O-])c(C(F)(F)F)c1', 0),
  ('c1cc2c(cc1[C@H]1OC[C@H]3[C@H]1CO[C@H]3c1ccc3c(c1)OCO3)OCO2', 0),
  ('CN1C2CCC1CC(OC(=O)c1cc(Cl)cc(Cl)c1)C2 (stereo unspecified)', 0),
  ('O=C(Cc1ccc(Cl)c(Cl)c1)N1CCCCC1CN1CCCC1 (stereo unspecified)', 0),
  ('CCCCOC(=O)c1ccccc1C(=O)OCc1ccccc1', 0),
  ('O=C(O)c1cc(Oc2ccc(C(F)(F)F)cc2Cl)ccc1[N+](=O)[O-]', 0),
  ('N=c1c2c(-c3ccccc3)c(-c3ccccc3)n(Cc3ccccc3)c2ncn1C1CCC(O)CC1 (stereo unspecified)', 1);

Q: Could you please tell me the result logged for CCOCCOC(C)=O in this assay?
Result: 0

Q: What do you get for CC(=O)NCCc1c[nH]c2ccccc12 ?
Result: 0

Q: Moving on to C[C@]12CC[C@H]3[C@@H](CCC4=CC(=O)CC[C@@]43C)[C@H]1CC[C@H]2OC(=O)CCC1CCCC1
Result: 0

----------
Assay: qHTS of pediatric cancer cell lines to identify multiple opportunities for drug repurposing: Primary screen for control Hh wild type fibroblast cells (AID 1347106); further: nearly all actives have a fitted effect of over 55% in size
Conditions: Hh wild-type fibroblast viability, CellTiter-Glo luminescence, 48 h; series mostly up to 46 µM
Inconclusive results are not listed. Active and inactive are the calls of the source. Calls follow the shape of the dose curve; as a rule, active = well fitted cell-killing curve with a large enough effect; inconclusive = small, poorly fitted or top-dose-only effect; inactive = flat fitted curve, though single readings scatter.
Reply using exactly one outcome from YES = active, NO = inactive

INSERT INTO assay_data (compound, assigned_category) VALUES
  ('CCCCCC[C@H]1C(=O)O[C@H](C)[C@H](NC(=O)c2cccc(NC=O)c2O)C(=O)O[C@@H](C)[C@@H]1OC(=O)CC(C)C', 'NO'),
  ('CCOC(=O)c1cncn1[C@H](C)c1ccccc1', 'NO'),
  ('CC(=O)OCC1=C(C(=O)O)N2C(=O)[C@@H](N)[C@@H]2SC1', 'NO');

Q: Just curious, what result did CC[C@@H]1[C@@H](C)O[C@@](O)([C@@H](C)[C@H](O)[C@H](C)[C@H]2OC(=O)C=CC=C[C@@H](C)[C@@H]([C@@H](C)[C@@H](O)[C@H](C)[C@@]3(O)C[C@H](O[C@H]4C[C@H](O)[C@H](O)[C@H](C)O4)[C@H](CC)[C@@H](C)O3)OC(=O)C=CC=C[C@@H]2C)C[C@H]1O[C@H]1C[C@H](O)[C@H](O)[C@H](C)O1 get here?
Result: YES

Q: Same thing, different compound: CC(N[C@H]1C[C@H]1c1ccccc1)c1ccc2c(c1)OCCO2 (some centres not stated)
Result: NO

Q: Also CC1=C(C(=O)O)N2C(=O)[C@@H](N)[C@H]2SC1 , if possible.
Result: NO

Q: Continue with C[C@H]([C@H](O)CCC(C)(C)O)[C@H]1CC[C@@]2(O)C3=CC(=O)[C@@H]4C[C@@H](O)[C@@H](O)C[C@]4(C)[C@@H]3CC[C@]12C
Result: NO

Q: Now the same for C1CCC(NC2CCCCC2)CC1
Result: NO

Q: Continue with O=C(O)COc1nc(Cl)c(Cl)cc1Cl
Result: NO

Q: Queued: C=C[C@@H]1CN2CCC1C[C@H]2[C@H](O)c1ccnc2ccccc12 (some centres not stated)
Result: NO

Q: Entry COc1cccc2c1[C@]13CCN(CC4CC4)[C@H](C2)[C@]1(OC)CCC(=O)C3 please
Result: NO

Q: Can you handle CC(=Cc1csc(C)n1)[C@@H]1C[C@H]2O[C@@H]2CCC[C@H](C)[C@@H](O)[C@@H](C)C(=O)C(C)(C)[C@@H](O)CC(=O)O1 next?
Result: NO

Q: Continue with CCN(CC)C(=O)c1ccc(C2=CC3(CCNCC3)Oc3cccc(O)c32)cc1
Result: NO

Q: Note, next up: C=C[C@@H]1CN2CCC1C[C@@H]2[C@@H](O)c1ccnc2ccccc12 (some centres not stated)
Result: NO

Q: Follow-up entry: Nc1ccc(Cl)cc1N
Result: NO

Q: Try the compound c1cc2ccc3cccc4ccc(c1)c2c34
Result: NO

Q: And then COC1=CC(C)=C[C@@H](C)[C@@H](O)[C@@H](C)CC(C)=CC=C[C@H](OC)[C@H]([C@@H](C)[C@@H](O)[C@H](C)[C@@]2(O)C[C@@H](O)[C@H](C)[C@@H](C(C)C)O2)OC1=O , what is it?
Result: YES
